Target under test: recombinant human SAE enzyme (Homo sapiens (Human), UniProt Q9UBT2)
Sequence (Q9UBT2 whole entry): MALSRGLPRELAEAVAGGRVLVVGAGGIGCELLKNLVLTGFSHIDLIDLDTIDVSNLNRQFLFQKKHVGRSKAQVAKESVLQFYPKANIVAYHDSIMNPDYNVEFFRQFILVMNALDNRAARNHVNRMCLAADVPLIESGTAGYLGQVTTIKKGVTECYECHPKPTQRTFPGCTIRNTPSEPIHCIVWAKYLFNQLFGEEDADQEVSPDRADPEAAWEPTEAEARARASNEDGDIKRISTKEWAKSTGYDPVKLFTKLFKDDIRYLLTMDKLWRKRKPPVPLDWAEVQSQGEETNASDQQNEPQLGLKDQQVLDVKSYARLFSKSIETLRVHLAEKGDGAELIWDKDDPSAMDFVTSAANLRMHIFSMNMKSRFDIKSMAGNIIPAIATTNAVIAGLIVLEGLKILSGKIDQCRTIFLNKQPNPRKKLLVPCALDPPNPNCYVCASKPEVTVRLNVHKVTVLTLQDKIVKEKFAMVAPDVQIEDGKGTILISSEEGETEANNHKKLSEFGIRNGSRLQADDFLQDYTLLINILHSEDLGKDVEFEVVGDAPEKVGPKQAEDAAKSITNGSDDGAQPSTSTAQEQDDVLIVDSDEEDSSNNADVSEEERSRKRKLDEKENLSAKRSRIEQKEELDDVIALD
Sequence (Q9UBE0 whole entry partner): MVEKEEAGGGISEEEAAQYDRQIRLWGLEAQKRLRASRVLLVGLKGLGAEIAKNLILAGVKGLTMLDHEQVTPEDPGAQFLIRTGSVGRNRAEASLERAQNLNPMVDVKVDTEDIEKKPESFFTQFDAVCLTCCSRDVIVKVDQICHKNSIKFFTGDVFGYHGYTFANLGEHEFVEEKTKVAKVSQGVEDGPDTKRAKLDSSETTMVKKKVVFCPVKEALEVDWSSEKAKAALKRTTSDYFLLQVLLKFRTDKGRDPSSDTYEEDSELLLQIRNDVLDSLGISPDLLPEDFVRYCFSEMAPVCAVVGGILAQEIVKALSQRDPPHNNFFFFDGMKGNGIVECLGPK
Assay: SAE HTRF enzyme assay
Type: biochemical
Condition description: Concentration 0.111 μM; read-out: Percent Inhibition
Metric name: inhibition at 0.111 µM (%)

>>> print(df.to_string())
                                        mol                         target_under_test  observed_result
0  NS(=O)(=O)OC[C@H]1C[C@@H](Nc2ncncc2C(=O)c2cc(CC3=CCOC3)cs2)C[C@@H]1O  recombinant human SAE enzyme (Homo sapiens (Human), UniProt Q9UBT2)               72
1  NS(=O)(=O)OC[C@H]1C[C@@H](Nc2ncncc2C(=O)c2cc(Cn3ccc4cccnc43)cs2)C[C@@H]1O  recombinant human SAE enzyme (Homo sapiens (Human), UniProt Q9UBT2)               98
2  Cc1sc(C(=O)c2cncnc2N[C@@H]2C[C@H](COS(N)(=O)=O)[C@@H](O)C2)cc1Cn1cccn1  recombinant human SAE enzyme (Homo sapiens (Human), UniProt Q9UBT2)               96
3  COCc1coc(C(=O)c2cncnc2N[C@@H]2C[C@H](COS(N)(=O)=O)[C@@H](O)C2)c1  recombinant human SAE enzyme (Homo sapiens (Human), UniProt Q9UBT2)               28
4  NS(=O)(=O)OC[C@H]1C[C@@H](Nc2ncncc2C(=O)c2cc(COc3ccccc3OC(F)(F)F)cs2)C[C@@H]1O  recombinant human SAE enzyme (Homo sapiens (Human), UniProt Q9UBT2)               87
5  NS(=O)(=O)OC[C@H]1C[C@@H](Nc2ncncc2C(=O)c2cc(Cc3ccc(C(F)(F)F)o3)cs2)C[C@@H]1O  recombinant human SAE enzyme (Homo sapiens (Human), UniProt Q9UBT2)               96
6  NS(=O)(=O)OC[C@H]1C[C@@H](Nc2ncncc2C(=O)c2cc(CCc3ccccc3)cs2)C[C@@H]1O  recombinant human SAE enzyme (Homo sapiens (Human), UniProt Q9UBT2)               96
